Data provenance: patent US8383581B2

test: Stability of peptides in simulated intestinal fluid (pH 7.5); type: in vitro ADME; conditions: simulated intestinal fluid, 24 h, 2 μM, pH 7.5
Where a SMILES comes first, the peptide text is derived from it. [ ]: non-standard residue; d: D form. ξ: configuration not given here. Arg(NO2) = N=C(NCCC[C@H](N)C(=O)O)N[N+](=O)[O-]; ξαMePhe(2,6-F2) = CC(N)(Cc1c(F)cccc1F)C(=O)O; αMePhe(2-F) = C[C@](N)(Cc1ccccc1F)C(=O)O; ξαMePhe(2-F) = CC(N)(Cc1ccccc1F)C(=O)O; hArg = N=C(N)NCCCC[C@H](N)C(=O)O; Cit = NC(=O)NCCC[C@H](N)C(=O)O; ξαMeF = CC(N)(Cc1ccccc1)C(=O)O; Nle = CCCC[C@H](N)C(=O)O; Orn = NCCC[C@H](N)C(=O)O; ξαMeP = CC1(C(=O)O)CCCN1; Ac5c = NC1(C(=O)O)CCCC1; Ac3c = NC1(C(=O)O)CC1; Aib = CC(C)(N)C(=O)O
result type: % degradation of peptides in 24 h when incubated with simulated intestinal fluid (%)
Response body: numeric value in %, unit text excluded.

>  <molecule>
CC[C@H](C)[C@H](NC(=O)[C@H](CCC(=O)O)NC(=O)C(C)(C)NC(=O)[C@@H](NC(=O)C1(N)CC1)C(C)C)C(=O)N[C@@H](CCC(N)=O)C(=O)N[C@@H](CC(C)C)C(=O)N[C@@H](CCSC)C(=O)N[C@@H](Cc1c[nH]cn1)C(=O)N[C@@H](CCC(N)=O)C(=O)N[C@@H](CCCCNC(=N)N)C(=O)NC(C)(C)C(=O)N[C@@H](CCCCN)C(=O)NC(C)(Cc1ccccc1)C(N)=O (some centres unmarked) [Seq. ID. 14] (H-[Ac3c]V[Aib]EIQLMHQ[hArg][Aib]K[ξαMeF]-NH2)

>  <quantitative result>
43

$$$$
>  <molecule>
CCCC[C@H](NC(=O)C(C)(Cc1c(F)cccc1F)NC(=O)[C@H](CCC(N)=O)NC(=O)[C@@H](NC(=O)[C@H](CCC(=O)O)NC(=O)C1(NC(=O)[C@@H](NC(=O)C2(N)CCCC2)C(C)C)CCCC1)[C@@H](C)CC)C(=O)N[C@@H](Cc1c[nH]cn1)C(=O)N[C@@H](CCC(N)=O)C(=O)N[C@@H](CCCCNC(=N)N)C(=O)N1CCCC1(C)C(=O)N[C@@H](CCCCN)C(=O)NC(C)(Cc1ccccc1)C(N)=O (some centres unmarked) [Seq. ID. 46] (H-[Ac5c]V[Ac5c]EIQ[ξαMePhe(2,6-F2)][Nle]HQ[hArg][ξαMeP]K[ξαMeF]-NH2)

>  <quantitative result>
00

$$$$
>  <molecule>
CCCC[C@H](NC(=O)[C@](C)(Cc1ccccc1F)NC(=O)[C@H](CCC(N)=O)NC(=O)[C@@H](NC(=O)[C@H](CCC(=O)O)NC(=O)C(C)(C)NC(=O)[C@@H](NC(=O)C(C)(C)N)C(C)C)[C@@H](C)CC)C(=O)N[C@@H](Cc1c[nH]cn1)C(=O)N[C@@H](CCC(N)=O)C(=O)N[C@@H](CCCN)C(=O)N[C@@H](C)C(=O)N[C@@H](CCCNC(=N)N[N+](=O)[O-])C(=O)N[C@@](C)(Cc1ccccc1F)C(N)=O [Seq. ID. 329] (H-[Aib]V[Aib]EIQ[αMePhe(2-F)][Nle]HQ[Orn]A[Arg(NO2)][αMePhe(2-F)]-NH2)

>  <quantitative result>
100

$$$$

Return value of % degradation of peptides in 24 h when incubated with simulated intestinal fluid for input CCCC[C@H](NC(=O)C(C)(Cc1c(F)cccc1F)NC(=O)[C@H](CCC(N)=O)NC(=O)[C@@H](NC(=O)[C@H](CCC(=O)O)NC(=O)C(C)(C)NC(=O)[C@@H](NC(=O)C1(N)CCCC1)C(C)C)[C@@H](C)CC)C(=O)N[C@@H](Cc1c[nH]cn1)C(=O)N[C@@H](CCC(N)=O)C(=O)N[C@@H](CCCCNC(=N)N)C(=O)NC(C)(C)C(=O)NC(C)(Cc1c(F)cccc1F)C(=O)NC(C)(Cc1c(F)cccc1F)C(N)=O (some centres unmarked) [Seq. ID. 240] (H-[Ac5c]V[Aib]EIQ[ξαMePhe(2,6-F2)][Nle]HQ[hArg][Aib][ξαMePhe(2,6-F2)][ξαMePhe(2,6-F2)]-NH2) , no commentary. 40

Return value of % degradation of peptides in 24 h when incubated with simulated intestinal fluid for input CCCC[C@H](NC(=O)C(C)(Cc1c(F)cccc1F)NC(=O)[C@H](CCC(N)=O)NC(=O)[C@@H](NC(=O)[C@H](CCC(=O)O)NC(=O)C(C)(C)NC(=O)[C@@H](NC(=O)C1(N)CCCC1)C(C)C)[C@@H](C)CC)C(=O)N[C@@H](Cc1c[nH]cn1)C(=O)N[C@@H](CCC(N)=O)C(=O)NC(C)(Cc1c(F)cccc1F)C(=O)NC(C)(C)C(=O)N[C@@H](CCCNC(N)=O)C(=O)NC(C)(Cc1ccccc1F)C(N)=O (some centres unmarked) [Seq. ID. 480] (H-[Ac5c]V[Aib]EIQ[ξαMePhe(2,6-F2)][Nle]HQ[ξαMePhe(2,6-F2)][Aib][Cit][ξαMePhe(2-F)]-NH2) , no commentary. 00
